test system: SEAP and Luciferase expression in HEK293T cells; test: MIMO designer cells (AIR-1/2-GEMS + CDH-3-TF); assay type: cell-based; settings: Homo sapiens, HEK-293T; Fig5c SEAP turn ON via AIR-2-GEMS, four-parameter fit, given as IC50; read-out: IC50 (best-fit value)
MEASURED_PARAMETER: pIC50
Would you please state pIC50, meaning minus log10 of the concentration in mol/L, as a bare number?

query: Note pIC50 for the compound shown: CC1(C)CCC(CN2CCN(c3ccc(C(=O)NS(=O)(=O)c4ccc(NCC5CCOCC5)c([N+](=O)[O-])c4)c(Oc4cnc5[nH]ccc5c4)c3)CC2)=C(c2ccc(Cl)cc2)C1
result: 6.18
